Reference source: PubChem BioAssay (NCATS)

System: TAB109
Assay: qHTS profiling for inhibitors of Plasmodium falciparum proliferation (AID 504749); further: nearly all actives have a fitted effect of over 60% in size
Details: P. falciparum in erythrocytes, SYBR Green DNA, 72 h; series mostly up to 12.8 µM
Records with an inconclusive call do not appear. The source made the active and inactive calls. The call rests on the fitted dose curve; in most records, active means well fitted inhibition curve with a large enough effect; inconclusive means small, poorly fitted or top-dose-only effect; inactive means flat fitted curve, though single readings scatter.
property.name: outcome

- NC[C@@H]1O[C@H](O[C@@H]2[C@H](O[C@@H]3O[C@H](CO)[C@@H](O)[C@@H]3O)[C@@H](O)[C@@H](N)C[C@H]2N)[C@@H](N)[C@H](O)[C@@H]1O: inactive
- CCCCC[C@H](O)/C=C\[C@H]1[C@H](C/C=C\CCCC(=O)O)[C@@H](O)C[C@H]1O (tested in a mixture with another compound): inactive
- CCOC(=O)O[C@@H](C)OC(=O)[C@@H]1N2C(=O)[C@@H](NC(=O)[C@@H](N)c3ccccc3)[C@H]2SC1(C)C: inactive

----------
System: ATS189
Experiment: qHTS profiling for inhibitors of Plasmodium falciparum proliferation (AID 504749); further: nearly all actives have a fitted effect of over 60% in size
Details: P. falciparum in erythrocytes, SYBR Green DNA, 72 h; series mostly up to 12.8 µM
Inconclusive results are not listed. Activity calls are given as the source filed them. The call rests on the fitted dose curve; in most records, active means well fitted inhibition curve with a large enough effect; inconclusive means small, poorly fitted or top-dose-only effect; inactive means flat fitted curve, though single readings scatter.
Outcomes: y for active, n for inactive

• C[C@@]12CC[C@H]3[C@@H](CCC4=CC(=O)CC[C@]43C)[C@H]1CC[C@H]2C(=O)CO = n
• CO[C@]12C(COC(N)=O)C3=C(C(=O)C(C)=C(N)C3=O)N1CC1NC12 (some centres not stated) = y
• CCC(CCC(C)C1CCC2C3CC=C4CC(O)CC[C@@]4(C)C3CC[C@@]12C)C(C)C (some centres not stated) = n
• Cc1onc(-c2ccccc2Cl)c1C(=O)N[C@H]1C(=O)N2[C@H]1SC(C)(C)[C@H]2C(=O)O = n
• CCOC(=O)C1=CC(OC(CC)CC)C(NC(C)=O)C(N)C1 (configuration not stated) = n
• Nc1nc2ncc(CNc3ccc(C(=O)NC(CCC(=O)O)C(=O)O)cc3)nc2c(=O)[nH]1 (configuration not stated) = n
• CCCC[C@H](CC)CN1CN(C[C@@H](CC)CCCC)CC(C)(N)C1 = n
• C[C@H]1CS(=O)(=O)CCN1/N=C\c1ccc([N+](=O)[O-])o1 = n
• CCN(CCCCOC(=O)c1ccc(OC)c(OC)c1)[C@@H](C)Cc1ccc(OC)cc1 = n
• CC(=O)OCC(=O)[C@@]1(O)CC[C@@H]2[C@H]3CCC4=CC(=O)C=C[C@]4(C)[C@]3(F)[C@@H](O)C[C@@]21C = n
• NS(=O)(=O)c1cc2c(cc1Cl)N[C@@H](C(Cl)Cl)NS2(=O)=O = n
• CC1(C)O[C@@H]2C[C@H]3[C@H]4C[C@H](F)C5=CC(=O)CC[C@]5(C)[C@@H]4[C@H](O)C[C@]3(C)[C@]2(C(=O)CO)O1 = n
• CN[C@H]1[C@H](O)[C@@H](O[C@@H]2[C@H](O)[C@@H](O[C@H]3OC(CN)=CC[C@H]3N)[C@@H](N)C[C@H]2N)OC[C@@]1(C)O = n
• NCC1CCC(N)C(O[C@@H]2C(O)[C@H](O[C@H]3OC(CO)C(O)C(N)C3O)[C@@H](N)C[C@H]2N)O1 (some centres not stated) = n
• C[C@@H]1C[C@H]2[C@@H]3C[C@H](F)C4=CC(=O)C=C[C@@]4(C)[C@]3(F)[C@H](O)C[C@]2(C)[C@@]1(O)C(=O)CO = n
• CC(C)(C)NC(=O)[C@@H]1CC[C@@H]2[C@@H]3CC[C@@H]4NC(=O)C=C[C@@]4(C)[C@H]3CC[C@]21C = n
• C[C@@H](CNC1CCCCC1)OC(=O)c1ccccc1 = y
